pKd: −log10 of the molar value.
Dear all, I have gathered published pKd values for Tyrosine-protein kinase JAK2 (Homo sapiens); the list follows.

SMILES CODE | TESTED SYSTEM | pKd
COc1ccc(C(=O)Nc2ccc(Nc3n[nH]c(NCc4cc(C)c(O)c(C)c4)c3C(N)=O)cc2)cc1 | Tyrosine-protein kinase JAK2 (Homo sapiens) | < 6.00
Cc1cc(Nc2nc(C(F)(F)c3ncc(F)cn3)nc3ccccc23)n[nH]1 | Tyrosine-protein kinase JAK2 (Homo sapiens) | ≥ 9.00
Cc1cc(Nc2nc(C(=O)c3ccc(F)cc3)nc3cc(F)ccc23)n[nH]1 | Tyrosine-protein kinase JAK2 (Homo sapiens) | 8.00 to 9.00
Cc1cc(CNc2[nH]nc(Nc3ccc(N4CCOCC4)c(Cl)c3)c2C(N)=O)cc(C)c1O | Tyrosine-protein kinase JAK2 (Homo sapiens) | 6.00 to 7.00

* * *

Target or system UniProt O60674; metric Kd; compiled from varied reports.

MOLECULE | Kd
Cc1cc(Nc2nc(C(=O)c3ccc(F)cn3)nc3ccccc23)n[nH]1 | 1 to 10 nM
COc1ccc2c(Nc3cc[nH]n3)nc(C(O)c3ccc(F)cc3)nc2c1 (racemic) | ≤ 1 nM
Cc1cc(Nc2nc(S(=O)(=O)c3ccc(F)cc3)nc3[nH]ccc23)n[nH]1 | ≤ 1 nM
Cc1cc(Nc2nc(C(F)(F)c3ccc(F)cn3)nc3c(C(=O)NC4COC4)cccc23)n[nH]1 | ≤ 1 nM
Cc1cc(Nc2nc(C(F)(F)c3ccc(F)cn3)nc3c(N)cccc23)n[nH]1 | ≤ 1 nM
COC(c1ccc(F)cc1)c1nc(Nc2cc(C)[nH]n2)c2ccccc2n1 (racemic) | ≤ 1 nM
OC(c1ccc(F)cc1)c1nc(Nc2cc[nH]n2)c2ccccc2n1 (racemic) | ≤ 1 nM
Cc1cc(Nc2nc(C(F)(F)c3ccc(F)cc3)nc3cc(CS(C)(=O)=O)ccc23)n[nH]1 | ≤ 1 nM
Cc1cc(Nc2nc(C(O)c3ccc(F)cc3)nc3cc(O)ccc23)n[nH]1 (racemic) | ≤ 1 nM
Cc1cc(Nc2nc(C(O)c3ccc(F)cc3)nc3ccc(F)cc23)n[nH]1 (racemic) | 1 to 10 nM
Cc1cc(CNc2[nH]nc(Nc3ccc(N4CCOCC4)c(F)c3)c2C(N)=O)cc(C)c1O | > 1000 nM
Cn1cc2c(Nc3cc[nH]n3)nc(C(F)(F)c3ccc(F)cc3)nc2n1 | ≤ 1 nM
Cc1cc(CNc2[nH]nc(Nc3ccc(N4C[C@@H](C)O[C@@H](C)C4)cc3)c2C(N)=O)cc(C)c1O | > 1000 nM
Cc1cc(CNc2[nH]nc(Nc3ccc(CC#N)cc3)c2C(N)=O)cc(C)c1O | > 1000 nM
Cc1cc(CNc2[nH]nc(Nc3ccc(NC(=O)c4ccc(C(F)(F)F)cc4)cc3)c2C(N)=O)cc(C)c1O | > 1000 nM
Cc1cc(Nc2nc(C(O)c3ccc(F)cc3)nc3cc(OC4CCNCC4)ccc23)n[nH]1 (stereo not shown) | ≤ 1 nM

* * *

Consider the following Kd data for Tyrosine-protein kinase JAK2 (Homo sapiens), collected from several reports.
MEASURED METRIC: Kd

COMPOUND | MEASURED METRIC | REPORTED RESULT
CN1Cc2cc(F)ccc2OCCCNC(=O)c2cnn3ccc1nc23 | Kd | 6.5 nM
Cc1cc(Nc2nc(C(O)c3ccc(F)cc3)nc3cccc(F)c23)n[nH]1 (racemic) | Kd | > 10 nM
Fc1ccc(C(F)(F)c2nc(Nc3cc[nH]n3)c3ccccc3n2)cc1 | Kd | ≤ 1 nM
Cc1cc(CNc2[nH]nc(Nc3ccc(N4CCC(N5CCC(C)CC5)CC4)cc3)c2C(N)=O)cc(C)c1O | Kd | > 1000 nM
Cc1cc(Nc2nc(C(O)c3ccc(F)cc3)nc3cc(C(F)(F)F)ccc23)n[nH]1 (racemic) | Kd | 1 to 10 nM
Cc1cc(Nc2nc(C(O)c3ccc(F)c(F)c3)nc3ccccc23)n[nH]1 (racemic) | Kd | ≤ 1 nM
Cc1cc(Nc2nc(C(F)(F)c3ccc(F)cn3)nc3c(NS(C)(=O)=O)cccc23)n[nH]1 | Kd | ≤ 1 nM

* * *

Reported pKd against Tyrosine-protein kinase JAK2 (Homo sapiens), gathered from multiple publications, appears below.
pKd: −log10 of the molar value.
MEASURED METRIC: pKd

COMPOUND | TESTED SYSTEM | MEASURED METRIC | REPORTED RESULT
Cc1cc(Nc2nc(C(O)c3ccc(F)cc3)nc3cc(Br)ccc23)n[nH]1 (centres unmarked) | Tyrosine-protein kinase JAK2 (Homo sapiens) | pKd | 8.00 to 9.00
O=C(c1ccc(F)cc1)c1nc(Nc2cc[nH]n2)c2ccc(I)cc2n1 | Tyrosine-protein kinase JAK2 (Homo sapiens) | pKd | 8.00 to 9.00
COc1ccc2c(Nc3cc[nH]n3)nc(C(F)(F)c3ccc(F)cc3)nc2c1 | Tyrosine-protein kinase JAK2 (Homo sapiens) | pKd | 8.00 to 9.00
Cc1cc(Nc2nc(C(F)(F)c3ccc(F)cn3)nc3cc(C#N)ccc23)n[nH]1 | Tyrosine-protein kinase JAK2 (Homo sapiens) | pKd | 8.00 to 9.00
Cc1cc(Nc2nc(S(=O)(=O)c3ccc(F)cc3)nc3[nH]ncc23)n[nH]1 | Tyrosine-protein kinase JAK2 (Homo sapiens) | pKd | ≥ 9.00
Cc1cc(CNc2[nH]nc(Nc3ccc(N4CCC(F)CC4)cc3)c2C(N)=O)cc(C)c1O | Tyrosine-protein kinase JAK2 (Homo sapiens) | pKd | < 6.00
COc1ccc2c(Nc3cc[nH]n3)nc(C(=O)c3ccc(F)cc3)nc2c1 | Tyrosine-protein kinase JAK2 (Homo sapiens) | pKd | 8.00 to 9.00
Cc1cc(Nc2nc(C(F)(F)c3ccc(F)cn3)nc3ccccc23)n[nH]1 | Tyrosine-protein kinase JAK2 (Homo sapiens) | pKd | ≥ 9.00
Fc1ccc(C(F)(F)c2nc(Nc3cc[nH]n3)c3ccc(F)cc3n2)cc1 | Tyrosine-protein kinase JAK2 (Homo sapiens) | pKd | 8.00 to 9.00
Cc1cc(CNc2[nH]nc(Nc3cnc(N4CCOCC4)c(Cl)c3)c2C(N)=O)cc(C)c1O | Tyrosine-protein kinase JAK2 (Homo sapiens) | pKd | < 6.00
OC(c1ccc(F)cc1)c1nc(Nc2cc[nH]n2)c2ccc(I)cc2n1 (racemic) | Tyrosine-protein kinase JAK2 (Homo sapiens) | pKd | 8.00 to 9.00
CC1Nc2ccn3ncc(c3n2)C(=O)NCCOc2ccc(F)cc21 (centres unmarked) | Tyrosine-protein kinase JAK2 (Homo sapiens) | pKd | 9.82
OC(c1ccc(F)cc1)c1nc(Nc2cc[nH]n2)c2cc(F)ccc2n1 (racemic) | Tyrosine-protein kinase JAK2 (Homo sapiens) | pKd | 8.00 to 9.00
Cc1cc(Nc2nc(C(F)(F)c3ccc(F)cn3)nc3c(C(=O)O)cccc23)n[nH]1 | Tyrosine-protein kinase JAK2 (Homo sapiens) | pKd | ≥ 9.00
Cc1cc(Nc2nc(C(O)c3cccc(F)c3)nc3ccccc23)n[nH]1 (centres unmarked) | Tyrosine-protein kinase JAK2 (Homo sapiens) | pKd | 8.00 to 9.00
Cc1cc(CNc2[nH]nc(Nc3ccc(N4CCN(Cc5ccccc5)CC4)cc3)c2C(N)=O)cc(C)c1O | Tyrosine-protein kinase JAK2 (Homo sapiens) | pKd | < 6.00
COc1ccccc1C(O)c1nc(Nc2cc(C)[nH]n2)c2ccccc2n1 (racemic) | Tyrosine-protein kinase JAK2 (Homo sapiens) | pKd | 8.00 to 9.00
Fc1ccc(C(F)(F)c2nc(Nc3cc[nH]n3)c3ccccc3n2)nc1 | Tyrosine-protein kinase JAK2 (Homo sapiens) | pKd | ≥ 9.00
COc1cccc2c(Nc3cc[nH]n3)nc(C(=O)c3ccc(F)cc3)nc12 | Tyrosine-protein kinase JAK2 (Homo sapiens) | pKd | < 8.00
O=C1NCCOc2ccc(F)cc2CNc2ccn3ncc1c3n2 | Tyrosine-protein kinase JAK2 (Homo sapiens) | pKd | 9.24
Cc1cc(Nc2nc(C(C)(O)c3ccc(F)cc3)nc3ccsc23)n[nH]1 (racemic) | Tyrosine-protein kinase JAK2 (Homo sapiens) | pKd | ≥ 9.00
Cc1cc(CNc2[nH]nc(Nc3ccc(N4CCN(c5ncccn5)CC4)cc3)c2C(N)=O)cc(C)c1O | Tyrosine-protein kinase JAK2 (Homo sapiens) | pKd | < 6.00
CCc1cc(O)c(F)cc1-c1ccc2c(-c3nc4c([nH]3)CCN(C(=O)c3cnc(N(C)CCN5CCCC5=O)cn3)C4)n[nH]c2c1 | Tyrosine-protein kinase JAK2 (Homo sapiens) | pKd | 10.33
Cc1cc(Nc2nc(C(O)c3ccc(F)cc3)nc3cc(OCC(=O)OC(C)(C)C)ccc23)n[nH]1 (racemic) | Tyrosine-protein kinase JAK2 (Homo sapiens) | pKd | ≥ 9.00
Cc1cc(Nc2nc(C(O)c3ccc(F)cc3)nc3cc(F)ccc23)n[nH]1 (racemic) | Tyrosine-protein kinase JAK2 (Homo sapiens) | pKd | ≥ 9.00
Cc1cc(Nc2nc(C(=O)c3ccc(F)cc3)nc3cc(Br)ccc23)n[nH]1 | Tyrosine-protein kinase JAK2 (Homo sapiens) | pKd | 8.00 to 9.00
Cc1cc(Nc2nc(C(F)(F)c3ccc(F)cn3)nc3c([N+](=O)[O-])cccc23)n[nH]1 | Tyrosine-protein kinase JAK2 (Homo sapiens) | pKd | 8.00 to 9.00
Cc1cc(Nc2nc(C(F)(F)c3ccc(F)cc3)nc3c2cnn3C)n[nH]1 | Tyrosine-protein kinase JAK2 (Homo sapiens) | pKd | ≥ 9.00
COc1cccc2c(Nc3cc(C)[nH]n3)nc(C(F)(F)c3ccc(F)cn3)nc12 | Tyrosine-protein kinase JAK2 (Homo sapiens) | pKd | ≥ 9.00
